- target-system: cIAP2-BIR3 (Homo sapiens (Human))
- Sequence (Q13489 238-349): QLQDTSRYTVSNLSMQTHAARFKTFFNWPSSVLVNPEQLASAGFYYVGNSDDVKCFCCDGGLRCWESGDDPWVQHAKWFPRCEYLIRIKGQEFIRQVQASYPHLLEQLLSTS
- test-protocol: BIR binding assay (FRET competition), cIAP2 BIR3
IC50 values, listed per item

Use the examples below as a reference point.
stdin: Item C[C@@H]1CN(CC(=O)N2CC(C)(C)c3[nH]c(=O)c(Cc4ccc(F)cc4)cc32)[C@@H](CN2CCO[C@H](C(=O)NCCCNC(=O)[C@@H]3CN(C[C@H]4CN[C@H](C)CN4CC(=O)N4CC(C)(C)c5[nH]c(=O)c(Cc6ccc(F)cc6)cc54)CCO3)C2)CN1 [Example 125] with cIAP2-BIR3 (Homo sapiens (Human)) - IC50?
stdout: 7.94 to 15.8 nM

stdin: Which measured IC50 belongs to C[C@@H]1CN(CC(=O)N2CC(C)(C)c3[nH]c(=O)c(Cc4ccc(F)cc4)cc32)[C@@H](CN2CCO[C@H](C(=O)NCCN3CCN(C(=O)[C@@H]4CN(C[C@H]5CN[C@H](C)CN5CC(=O)N5CC(C)(C)c6[nH]c(=O)c(Cc7ccc(F)cc7)cc65)CCO4)CC3)C2)CN1 [Compound 134] , tested on cIAP2-BIR3 (Homo sapiens (Human))?
stdout: 7.94 to 15.8 nM

stdin: # returns recorded IC50 (system: cIAP2-BIR3 (Homo sapiens (Human))) for C[C@@H]1CN(CC(=O)N2CC(C)(C)c3[nH]c(=O)c(Cc4ccc(F)cc4)cc32)[C@@H](CN2CCO[C@H](C(=O)N3CCN(C(=O)[C@@H]4CN(C[C@H]5CN[C@H](C)CN5CC(=O)N5CC(C)(C)c6[nH]c(=O)c(Cc7ccc(F)cc7)cc65)CCO4)CC3)C2)CN1 [Example 118]
stdout: 7.94 to 15.8 nM

Please find the next molecule below.
stdin: So what IC50 did C[C@@H]1CN(CC(=O)N2CC(C)(C)c3[nH]c(=O)c(Cc4ccc(F)cc4)cc32)[C@@H](CN2CCO[C@H](COCc3c(F)c(F)c(COC[C@@H]4CN(C[C@H]5CN[C@H](C)CN5CC(=O)N5CC(C)(C)c6[nH]c(=O)c(Cc7ccc(F)cc7)cc65)CCO4)c(F)c3F)C2)CN1 [Example 85] get with cIAP2-BIR3 (Homo sapiens (Human))?
stdout: 15.8 to 31.6 nM

----------
Property: pIC50; scope: individual molecules
- target-system: XIAP-BIR3 (Homo sapiens (Human))
- test-protocol: BIR binding assay (FRET competition), XIAP BIR3
pIC50: −log10 of the molar value.

Use the examples below as a reference point.
stdin: What measured pIC50 goes with C[C@@H]1CN(CC(=O)N2CC(C)(C)c3[nH]c(=O)c(Cc4ccc(F)cc4)cc32)[C@@H](CN2CCO[C@H](C(=O)N3CCCN(C(=O)[C@@H]4CN(C[C@H]5CN[C@H](C)CN5CC(=O)N5CC(C)(C)c6[nH]c(=O)c(Cc7ccc(F)cc7)cc65)CCO4)CC3)C2)CN1 [Example 131] ?
stdout: 7.50 to 7.80

stdin: What value of pIC50 has been recorded for this entry: C[C@@H]1CN(CC(=O)N2CC(C)(C)c3[nH]c(=O)c(Cc4ccc(F)cc4)cc32)[C@@H](CN2CCN(CCCCCCCCCCCCN3CCN(C[C@H]4CN[C@H](C)CN4CC(=O)N4CC(C)(C)c5[nH]c(=O)c(Cc6ccc(F)cc6)cc54)[C@H](C)C3)C[C@H]2C)CN1 [Example 26]
stdout: 7.50 to 7.80

stdin: Item C[C@@H]1CN(CC(=O)N2CC(C)(C)c3[nH]c(=O)c(Cc4ccc(F)cc4)cc32)[C@@H](CN2CCC(CN(C)C(=O)Cc3ccc(C(=O)N(C)CC4CCN(C[C@H]5CN[C@H](C)CN5CC(=O)N5CC(C)(C)c6[nH]c(=O)c(Cc7ccc(F)cc7)cc65)CC4)cc3)CC2)CN1 [Example 97] has what recorded pIC50?
stdout: 7.80 to 8.10

Let us examine a further case.
stdin: // lookup pIC50 for C[C@@H]1CN(CC(=O)N2CC(C)(C)c3[nH]c(=O)c(Cc4ccc(F)cc4)cc32)[C@@H](CN2CCO[C@H](COCCCCCCOC[C@@H]3CN(C[C@H]4CN[C@H](C)CN4CC(=O)N4CC(C)(C)c5[nH]c(=O)c(Cc6ccc(F)cc6)cc54)CCO3)C2)CN1 [Example 64]
stdout: 7.80 to 8.10

----------
IC50: recorded values
- target-system: XIAP-BIR3 (Homo sapiens (Human), UniProt P98170)
- Sequence (P98170 241-356): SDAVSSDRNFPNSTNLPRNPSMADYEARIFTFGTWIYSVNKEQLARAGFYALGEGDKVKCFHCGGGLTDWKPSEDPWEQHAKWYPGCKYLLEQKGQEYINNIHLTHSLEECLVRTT
- test-protocol: BIR binding assay (FRET competition), XIAP BIR3

stdin: // returns reported IC50 for input "C[C@@H]1CN(CC(=O)N2CC(C)(C)c3[nH]c(=O)c(Cc4ccc(F)c(F)c4F)cc32)[C@@H](CN2CCO[C@H](C(=O)NCc3ccc(CNC(=O)[C@@H]4CN(C[C@H]5CN[C@H](C)CN5CC(=O)N5CC(C)(C)c6[nH]c(=O)c(Cc7ccc(F)c(F)c7F)cc65)CCO4)cc3)C2)CN1"
stdout: 15.8 to 31.6 nM

----------
- target-system: XIAP-BIR3 (Homo sapiens (Human))
- test-protocol: BIR binding assay (FRET competition), XIAP BIR3
Reported IC50 values for the following compounds.

Guide cases for IC50, answers given:
stdin: Requested field: IC50. Item: "Cc1ccc(Cc2cc3c([nH]c2=O)C(C)(C)CN3C(=O)CN2C[C@@H](C)NC[C@@H]2CN2CCO[C@H](C(=O)NCc3ccc(CNC(=O)[C@@H]4CN(C[C@H]5CN[C@H](C)CN5CC(=O)N5CC(C)(C)c6[nH]c(=O)c(Cc7ccc(C)cc7)cc65)CCO4)cc3)C2)cc1"
stdout: 7.94 to 15.8 nM

stdin: Suppose we examine the compound "C[C@@H]1CN(CC(=O)N2CC(C)(C)c3[nH]c(=O)c(Oc4ccc(Cl)cc4)cc32)[C@@H](CN2CCO[C@H](C(=O)NCc3ccc(CNC(=O)[C@@H]4CN(C[C@H]5CN[C@H](C)CN5CC(=O)N5CC(C)(C)c6[nH]c(=O)c(Oc7ccc(Cl)cc7)cc65)CCO4)cc3)C2)CN1" ; what IC50 value has been reported?
stdout: 31.6 to 501 nM

stdin: Reported IC50 for "CC(C)c1ccccc1Cc1cc2c([nH]c1=O)C(C)(C)CN2C(=O)CN1C[C@@H](C)NC[C@@H]1CN1CCO[C@H](C(=O)NCc2ccc(CNC(=O)[C@@H]3CN(C[C@H]4CN[C@H](C)CN4CC(=O)N4CC(C)(C)c5[nH]c(=O)c(Cc6ccccc6C(C)C)cc54)CCO3)cc2)C1" : what is it?
stdout: 31.6 to 501 nM

---
stdin: Fill blank: measured IC50 of the compound "C[C@@H]1CN(CC(=O)N2CC(C)(C)c3[nH]c(=O)c(Cc4ccc(Cl)cc4C#N)cc32)[C@@H](CN2CCO[C@H](COc3cccc(OC[C@@H]4CN(C[C@H]5CN[C@H](C)CN5CC(=O)N5CC(C)(C)c6[nH]c(=O)c(Cc7ccc(Cl)cc7C#N)cc65)CCO4)c3)C2)CN1" is ____.
stdout: 31.6 to 501 nM

stdin: # query: IC50 of entry "C[C@@H]1CN(CC(=O)N2CC(C)(C)c3[nH]c(=O)c(Cc4ccc(F)cc4)cc32)[C@@H](CN2CCC(CC(=O)NCc3ccc(CNC(=O)CC4CCN(C[C@H]5CN[C@H](C)CN5CC(=O)N5CC(C)(C)c6[nH]c(=O)c(Cc7ccc(F)cc7)cc65)CC4)cc3)CC2)CN1"
stdout: 7.94 to 15.8 nM

stdin: What does the record list as IC50 for "C[C@@H]1CN(CC(=O)N2CC(C)(C)c3c2cc(Cc2ccc(F)cc2)c(=O)n3C)[C@@H](CN2CCO[C@H](COCC#CC#CCOC[C@@H]3CN(C[C@H]4CN[C@H](C)CN4CC(=O)N4CC(C)(C)c5c4cc(Cc4ccc(F)cc4)c(=O)n5C)CCO3)C2)CN1" ?
stdout: 31.6 to 501 nM

stdin: Which IC50 value is on record for "C[C@@H]1CN(CC(=O)N2CC(C)(C)c3[nH]c(=O)c(Cc4ccc(F)cc4)cc32)[C@@H](CN2CCO[C@H](COc3cccc(OC[C@@H]4CN(C[C@H]5CN[C@H](C)CN5CC(=O)N5CC(C)(C)c6[nH]c(=O)c(Cc7ccc(F)cc7)cc65)CCO4)c3F)C2)CN1" ?
stdout: 15.8 to 31.6 nM

stdin: Entry "C[C@@H]1CN(CC(=O)N2CC(C)(C)c3[nH]c(=O)c(Cc4ccc(F)cc4)cc32)[C@@H](CN2CCO[C@H](COc3ccc(F)c(OC[C@@H]4CN(C[C@H]5CN[C@H](C)CN5CC(=O)N5CC(C)(C)c6[nH]c(=O)c(Cc7ccc(F)cc7)cc65)CCO4)c3F)C2)CN1" has what IC50?
stdout: 1.38 to 7.94 nM

stdin: Given the compound "Cc1c(NC(=O)[C@@H]2CN(C[C@H]3CN[C@H](C)CN3CC(=O)N3CC(C)(C)c4[nH]c(=O)c(Cc5ccc(F)cc5)cc43)CCO2)cccc1NC(=O)[C@@H]1CN(C[C@H]2CN[C@H](C)CN2CC(=O)N2CC(C)(C)c3[nH]c(=O)c(Cc4ccc(F)cc4)cc32)CCO1" , what is its reported IC50?
stdout: 15.8 to 31.6 nM
